Could you please report measured inhibition at […] for the items listed next?
Biological target: BIR3 domain of human cIAP-1 (Homo sapiens, UniProt Q13490)
Construct: human cIAP-1 (residues 267-363) fused to a GST-tag; GST-tag (cleaved yes); made in house; host or cells: Escherichia coli
Sequence (Q13490 267-363): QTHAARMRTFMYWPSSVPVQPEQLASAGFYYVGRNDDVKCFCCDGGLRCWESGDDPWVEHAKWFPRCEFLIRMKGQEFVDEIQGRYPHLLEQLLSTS
Assay: cIAP-1 in vitro competitive displacement binding assay (fluorescence polarization)
Settings: at 0.012 μM; read-out: cIAP1 IC50 or PI (percent inhibition)
Where a name gives a salt, the structure may show the parent alone.
Respond with the bare value in %.

// query Bench note: what inhibition at […] did C[C@@H]1CN(CC(=O)N2CC(C)(C)c3ncc(Cc4ccc(F)cc4)cc32)[C@@H](Cn2ccnc2Cl)CN1 [Example 8, dihydrochloride] show?
// result 100

// query Look at this compound and give its reported inhibition at […]. Cc1nccn1C[C@H]1CN[C@H](C)CN1CC(=O)N1CC(C)(C)c2ncc(Cc3ccc(F)cc3)cc21 [Example 2, dihydrochloride]
// result 100

// query For the compound Cc1ccc(=O)n(C[C@H]2CN[C@H](C)CN2CC(=O)N2CC(C)(C)c3ncc(Cc4ccc(F)cc4)cc32)c1 [Example 9, dihydrochloride] , what inhibition at […] is on record?
// result 92

// query Param item = C[C@@H]1CN(CC(=O)N2CC(C)(C)c3ncc(Cc4ccc(F)cc4)cc32)[C@@H](Cn2ccnc2C(F)(F)F)CN1 [Example 5, dihydrochloride] ; retrieve measured inhibition at […].
// result 96

// query Param item = CCc1nccn1C[C@H]1CN[C@H](C)CN1CC(=O)N1CC(C)(C)c2ncc(Cc3ccc(F)cc3)cc21 [Example 4, dihydrochloride] ; retrieve measured inhibition at […].
// result 96
